Tested on: SN12C renal
Assay: NCI tumour cell line growth inhibition, 48 h
METRIC: TGI

Below, 4 compounds whose answers are already recorded.
COMPOUND	TARGET OR TEST SYSTEM	RESULT
CC(SC(=S)N1CCOCC1)C(=O)Nc1nnc(-c2ccc(Cl)cc2)o1 (stereo not given)	SN12C renal	> 100 µM
COc1ccc(C(O)c2cc3c(N)c(C(=O)Nc4cccc5ccccc45)sc3nc2C)cc1 (stereo not given)	SN12C renal	> 46.8 µM
NC1=NC(Cn2nc(-c3ccccc3)c3ccccc3c2=O)=NNC(=O)N1	SN12C renal	> 100 µM
CCOC(=O)c1c2c(n(-c3ccc(C)cc3)c1C)-c1ccccc1C(=O)C2(C(=O)OCC)C(=O)OCC	SN12C renal	> 100 µM

Turning now to a further compound:
// TGI lookup, key: `COc1ccc(-c2c(C3=NCCCN3)nnn2-c2ccccc2)cc1`
> 100 µM
